protocol_description: logP by LC-MS, method [b], acidic range pH 2.7
Assay type: physicochemical
measurement_conditions: pH 2.7
assay_readout: log p

The reported value for COCCNCc1ccc(Nc2ncc(Br)c(NC3CCC3)n2)cc1 in terms of log p is 1.13[b]

The reported value for COc1cc(Nc2ncc(Br)c(NC3CCC3)n2)cc(OC)c1OC in terms of log p is 2.04[b]

The reported value for CN(C)S(=O)(=O)c1ccc(Nc2ncc(Cl)c(NC3CCC3)n2)cc1 in terms of log p is 2.53[b]

The reported value for C=C(C)C(=O)Nc1cccc(Nc2ncc(Br)c(NC3CCC3)n2)c1 in terms of log p is 1.9[b]

The reported value for CCOC(=O)Nc1cccc(Nc2ncc(Br)c(NC3CCC3)n2)c1 in terms of log p is 2.04[b]

The reported value for N#Cc1ccc(Nc2ncc(Cl)c(NC3CCC3)n2)cc1 in terms of log p is 2.77[b]

The reported value for CC(C)(C)C(=O)Nc1cccc(Nc2ncc(Cl)c(NC3CCC3)n2)c1 in terms of log p is 2.04[b]

The reported value for O=C1COCCN1c1cccc(Nc2ncc(Br)c(NC3CCC3)n2)c1 in terms of log p is 1.53[b]

The reported value for CS(=O)(=O)c1ccc(Nc2ncc(Br)c(NC3CCC3)n2)cc1 in terms of log p is 2.32[b]

The reported value for CN(C)C(=O)c1cccc(Nc2ncc(Br)c(NC3CCC3)n2)c1 in terms of log p is 1.68[b]

The reported value for CN1C(=O)COc2ccc(Nc3ncc(Br)c(NC4CCC4)n3)cc21 [Compound 13] in terms of log p is 1.83[b]

The reported value for O=C(Nc1ccc(Nc2ncc(Br)c(NC3CCC3)n2)cc1)OCCCl in terms of log p is 2.06[b]
